tested on: human erythrocytes; assay: in vitro; assay type: cell-based; details: red cells of human
pIC50: −log10 of the molar value. Square brackets hold non-standard residues; d marks the D form. Peptide text beside a SMILES is read from it. N(1-naphthylmethyl)Gly = O=C(O)CNCc1cccc2ccccc12; Nphe = O=C(O)CNCc1ccccc1; NBuGly = CCCCNCC(=O)O
measured.metric: pIC50

INSERT INTO measurements (compound, value_operator, reported_value) VALUES
  ('CC(C)C[C@@H](NC(=O)[C@H](CCCCN)NC(=O)[C@@H](Cc1cccc2ccccc12)NC(=O)[C@@H](Cc1ccccc1)NC(=O)[C@H](N)Cc1cccc2ccccc12)C(=O)N[C@@H](CCCCN)C(=O)N[C@@H](CCCCN)C(N)=O [Compound 8] (HELM PEPTIDE1{[N[C@H](Cc1cccc2ccccc12)C(=O)[*:2]].[dF].[O=C([C@@H](Cc1cccc2ccccc12)N[*:1])[*:2]].K.[dL].K.K.[am]}$$$$V2.0)', '<', 3.82),
  ('CC(C)C[C@H](NC(=O)[C@H](CCCCN)NC(=O)[C@H](CCCCN)NC(=O)[C@@H](N)CCCCN)C(=O)N[C@@H](Cc1ccc2ccccc2c1)C(=O)N[C@@H](Cc1ccc(O)cc1)C(=O)N[C@@H](Cc1ccc2ccccc2c1)C(N)=O [Compound 17] (HELM PEPTIDE1{K.K.K.L.[O=C([C@H](Cc1ccc2ccccc2c1)N[*:1])[*:2]].Y.[O=C([C@H](Cc1ccc2ccccc2c1)N[*:1])[*:2]].[am]}$$$$V2.0)', '=', 3.96),
  ('CC(C)C[C@H](NC(=O)[C@H](CCCCN)NC(=O)[C@H](CCCCN)NC(=O)[C@@H](N)CCCCN)C(=O)N[C@@H](Cc1cccc2ccccc12)C(=O)N[C@@H](Cc1ccccc1)C(=O)N[C@@H](Cc1cccc2ccccc12)C(N)=O [Compound 7, Lys-Lys-Lys-Leu-(1-Nal)Ala-Phe(1-Nal)Ala] (HELM PEPTIDE1{K.K.K.L.[O=C([C@H](Cc1cccc2ccccc12)N[*:1])[*:2]].F.[O=C([C@H](Cc1cccc2ccccc12)N[*:1])[*:2]].[am]}$$$$V2.0)', '=', 4.08),
  ('CC(C)C[C@@H](NC(=O)[C@H](CCCCN)NC(=O)[C@@H](N)CCCCN)C(=O)N[C@@H](CCCCN)C(=O)N[C@H](Cc1cccc2ccccc12)C(=O)N[C@H](Cc1ccccc1)C(=O)N[C@H](Cc1cccc2ccccc12)C(N)=O [Compound 10] (HELM PEPTIDE1{K.K.[dL].K.[O=C([C@@H](Cc1cccc2ccccc12)N[*:1])[*:2]].[dF].[O=C([C@@H](Cc1cccc2ccccc12)N[*:1])[*:2]].[am]}$$$$V2.0)', '<', 3.82),
  ('CC(C)C[C@@H](NC(=O)[C@H](CCCCN)NC(=O)[C@@H](Cc1ccc2ccccc2c1)NC(=O)[C@@H](Cc1ccccc1)NC(=O)[C@H](N)Cc1ccc2ccccc2c1)C(=O)N[C@@H](CCCCN)C(=O)N[C@@H](CCCCN)C(N)=O [Compound 3] (HELM PEPTIDE1{[N[C@H](Cc1ccc2ccccc2c1)C(=O)[*:2]].[dF].[O=C([C@@H](Cc1ccc2ccccc2c1)N[*:1])[*:2]].K.[dL].K.K.[am]}$$$$V2.0)', '<', 3.82),
  ('CC(C)C[C@H](NC(=O)[C@H](CCCCN)NC(=O)[C@H](Cc1ccc2ccccc2c1)NC(=O)[C@H](Cc1ccccc1)NC(=O)[C@@H](N)Cc1ccc2ccccc2c1)C(=O)N[C@@H](CCCCN)C(=O)N[C@@H](CCCCN)C(N)=O [Compound 13] (HELM PEPTIDE1{[N[C@@H](Cc1ccc2ccccc2c1)C(=O)[*:2]].F.[O=C([C@H](Cc1ccc2ccccc2c1)N[*:1])[*:2]].K.L.K.K.[am]}$$$$V2.0; N-terminus assumed)', '=', 3.86),
  ('CC(C)C[C@H](NC(=O)[C@H](CCCCN)NC(=O)[C@H](Cc1cccc2ccccc12)NC(=O)[C@H](Cc1ccccc1)NC(=O)[C@@H](N)Cc1cccc2ccccc12)C(=O)N[C@@H](CCCCN)C(=O)N[C@@H](CCCCN)C(N)=O [Compound 16] (HELM PEPTIDE1{[N[C@@H](Cc1cccc2ccccc12)C(=O)[*:2]].F.[O=C([C@H](Cc1cccc2ccccc12)N[*:1])[*:2]].K.L.K.K.[am]}$$$$V2.0)', '=', 3.87),
  ('CC(C)C[C@H](NC(=O)[C@H](Cc1cccc2ccccc12)NC(=O)[C@H](Cc1ccccc1)NC(=O)[C@@H](N)Cc1cccc2ccccc12)C(=O)N[C@@H](CCCCN)C(=O)N[C@@H](CCCCN)C(=O)N[C@@H](CCCCN)C(N)=O [Compound 5] (HELM PEPTIDE1{[N[C@@H](Cc1cccc2ccccc12)C(=O)[*:2]].F.[O=C([C@H](Cc1cccc2ccccc12)N[*:1])[*:2]].L.K.K.K.[am]}$$$$V2.0)', '<', 3.82),
  ('CCCCN(CC(=O)N[C@@H](CCCCN)C(=O)N(CC(=O)N(CC(=O)N(CC(N)=O)Cc1cccc2ccccc12)Cc1ccccc1)Cc1cccc2ccccc12)C(=O)[C@H](CCCCN)NC(=O)[C@@H](N)CCCCN [Compound 14] (H-KK[NBuGly]K[N(1-naphthylmethyl)Gly][Nphe][N(1-naphthylmethyl)Gly]-NH2)', '=', 3.93),
  ('CCCCN(CC(=O)N(CC(=O)N(CC(=O)N(CC(N)=O)Cc1cccc2ccccc12)Cc1ccccc1)Cc1cccc2ccccc12)C(=O)[C@H](CCCCN)NC(=O)[C@H](CCCCN)NC(=O)[C@@H](N)CCCCN [Compound 15] (H-KKK[NBuGly][N(1-naphthylmethyl)Gly][Nphe][N(1-naphthylmethyl)Gly]-NH2)', '=', 4.38);
